- METHOD DESCRIPTION: chemical genetic growth profiling, strain panel (AID 1159580);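 further: tested at 20 µM; growth read once vehicle control cultures reached saturation at 30 °C; lower values mean less growth of the strain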
- MEASUREMENT PARAMETERS: S. cerevisiae deletion strains, growth OD, locus YOR070C, strain gyp1
In all, about 5,500 compounds went through this assay and about 2,000 (36%) were called active. Inconclusive results (about 18%) are left out. No stated cut-off is given here; in the data, active means normalized growth mostly below about 0.91 (no sharp cut-off); inconclusive means no clear call, values can overlap the other calls; inactive means mostly above about 0.92. Some of the results follow.
Choose one outcome from this list and give only that: TRUE = active, FALSE = inactive

Inquiry: # lookup: test call for "CCOC(=O)c1c(C)c(Cl)c(O)c(Cl)c1O"
Reply text: TRUE

Inquiry: Kindly provide the recorded test outcome for the following compound: "CCC(=O)O[C@H]1[C@H](O[C@@H]2[C@@H](C)[C@H](O[C@H]3C[C@@](C)(OC)[C@@H](O)[C@H](C)O3)[C@@H](C)C(=O)O[C@H](CC)[C@@](C)(O)[C@H](O)[C@@H](C)C(=O)[C@H](C)C[C@@]2(C)O)O[C@H](C)C[C@@H]1N(C)C"
Reply text: FALSE

Inquiry: Answer briefly: the call reported for c1cncc(C2CCCCN2)c1 (stereo not given) in this assay.
Reply text: FALSE

Inquiry: Just curious, what result did "Cc1cc(O)c(C)c(O)c1C(=O)O" get here?
Reply text: FALSE

Inquiry: Entry CC(C[N+](C)(C)C)OC(N)=O (stereo not given) : call = ?
Reply text: FALSE

Inquiry: Could you kindly confirm the outcome this assay logged for CC(=O)[C@H]1CCC2C3CCC4=CC(=O)CC[C@]4(C)C3CC[C@@]21C (stereo not given in full) ?
Reply text: FALSE

Inquiry: Which outcome was entered for the compound CC1CC2C3CC(F)C4=CC(=O)C=CC4(C)C3(F)C(O)CC2(C)C1(O)C(=O)CO (stereo not given) in this test?
Reply text: FALSE
